Test system: COLO 205
Test: NCI tumour cell line growth inhibition, 48 h
Activity calls are given as the source filed them. Cut-off read from the data, not from the text of the source: active = GI50 up to about 1.1 µM and inactive = higher.
For each record, write down the corresponding GI50.

Each of the following entries comes with a recorded value; kindly state GI50 for each.
1. CCCCCC(=O)OCC(=O)[C@H]1[C@H](C)C[C@H]2[C@@H]3C[C@H](F)C4=C/C(=N/OC(=O)c5cccc6c(=O)c7ccccc7[nH]c56)C=C[C@]4(C)[C@H]3[C@@H](O)C[C@@]21C
2. CCN(CC)CCSc1nc2cccc([N+](=O)[O-])c2[nH]1
3. CCCCCCCCCCCCCCCCOCC(CCl)OP(=O)(O)OP(=O)(O)OCC1OC(n2ccc(N)nc2=O)C(O)C1O (centres undefined)
4. Cc1ccc(-c2cc(=O)c3cc(C)c(C)c(C(=O)O)c3o2)cc1N
5. CCc1ccc(Nc2cc(=O)n(C)c(SCc3ccccc3)n2)cc1

(A)
1. 24.3 µM (inactive)
2. > 100 µM (inactive)
3. > 100 µM (inactive)
4. > 100 µM (inactive)
5. 12.7 µM (inactive)
